The following binders are shown together with reported t1/2 values.
Molecular target: Ab-15
Sequence (heavy, as listed by the source, chain 1 of 2): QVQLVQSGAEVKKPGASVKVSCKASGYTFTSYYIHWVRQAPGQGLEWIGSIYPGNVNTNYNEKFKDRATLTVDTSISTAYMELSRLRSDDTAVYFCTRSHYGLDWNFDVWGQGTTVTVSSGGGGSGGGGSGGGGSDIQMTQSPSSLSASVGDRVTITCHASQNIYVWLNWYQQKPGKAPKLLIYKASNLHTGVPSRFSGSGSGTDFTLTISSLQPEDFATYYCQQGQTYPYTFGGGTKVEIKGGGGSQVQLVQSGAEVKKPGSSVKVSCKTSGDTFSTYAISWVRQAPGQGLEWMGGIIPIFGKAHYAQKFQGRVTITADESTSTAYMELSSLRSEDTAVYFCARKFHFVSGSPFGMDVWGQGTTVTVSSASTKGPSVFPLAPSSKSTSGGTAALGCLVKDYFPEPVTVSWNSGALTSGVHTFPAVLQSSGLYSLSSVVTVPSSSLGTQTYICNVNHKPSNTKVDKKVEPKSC
Sequence (light, as listed by the source, chain 2 of 2): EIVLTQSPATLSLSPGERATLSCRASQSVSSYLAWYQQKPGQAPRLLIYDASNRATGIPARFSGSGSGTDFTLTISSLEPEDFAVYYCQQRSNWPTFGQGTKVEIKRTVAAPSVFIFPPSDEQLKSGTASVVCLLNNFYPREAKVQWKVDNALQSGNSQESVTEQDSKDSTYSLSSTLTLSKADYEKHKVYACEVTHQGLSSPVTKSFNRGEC
Assay: BLI (Octet): sensor loaded with 200 nM biotinylated peptide, 100 nM Ab-15;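 further: binding association and dissociation tracked in real time, fitted to a 1:1 binding model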
Where no end group is shown, it is not given here.
A number alone suffices; assume min.

Example cases with answers are listed next.
PDWCPRDLWVHCFA (cysteine pairing not given here; also: biotinylated, site not given here, CD28 peptide mask) [Peptide-64]; 3.4
MDWCPRDLWVHCFA (cysteine pairing not given here; also: biotinylated, site not given here, CD28 peptide mask) [Peptide-41]; 9.8
IDWCPRDLWVHCFA (cysteine pairing not given here; also: biotinylated, site not given here, CD28 peptide mask) [Peptide-60]; 3.1

Just so you know, measured t1/2 for EDWCPRDLWVHCFA (cysteine pairing not given here; also: biotinylated, site not given here, CD28 peptide mask) [Peptide-57] came out at 3

Just so you know, measured t1/2 for SDWCPRDLWVHCFA (cysteine pairing not given here; also: biotinylated, site not given here, CD28 peptide mask) [Peptide-65] came out at 2.9
